Every entry's value here was drawn from PubChem BioAssay AID493011.

systemTested: DNA dC->dU-editing enzyme APOBEC-3A (Homo sapiens) (UniProt P31941)
Sequence (P31941 whole entry, looked up): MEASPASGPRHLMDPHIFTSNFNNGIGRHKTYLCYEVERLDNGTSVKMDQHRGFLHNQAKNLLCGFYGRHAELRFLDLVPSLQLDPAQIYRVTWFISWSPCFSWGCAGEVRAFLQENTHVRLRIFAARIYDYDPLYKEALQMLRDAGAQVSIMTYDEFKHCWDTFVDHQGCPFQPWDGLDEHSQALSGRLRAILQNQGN
test: APOBEC3A ssDNA deaminase inhibitors, primary screen, selectivity assay for APOBEC3G inhibitor project, biochemical, FAM/TAMRA oligo cleavage fluorescence (AID 493011);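 further: plate controls were A3A with DMSO for no effect and wells lacking A3A enzyme for full effect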
reportedConditions: recombinant A3A, FAM/TAMRA ssDNA deamination fluorescence; at 20 µM; hits give high values
In all, about 330,000 compounds went through this assay and about 1,400 (0.42%) were called active. The full list was thinned out, with actives kept by preference.

{"columns": ["structureSmiles", "systemTested", "inhibition"],
 "data": [
  ["COC(=O)C1=C(c2cccc(OCc3ccccc3)c2)C[C@@H]2CC[C@H]1N2C(=O)NNCc1ccccc1", "DNA dC->dU-editing enzyme APOBEC-3A (Homo sapiens) (UniProt P31941)", "-3.97% (inactive)"],
  ["CC(=NC1CCN(Cc2ccccc2)CC1)c1c(O)n(C)c(=O)n(C)c1=O", "DNA dC->dU-editing enzyme APOBEC-3A (Homo sapiens) (UniProt P31941)", "1.55% (inactive)"],
  ["O=C(c1cc(S(=O)(=O)N2CCOCC2)ccc1F)N1CCC2(CC1)OCCO2", "DNA dC->dU-editing enzyme APOBEC-3A (Homo sapiens) (UniProt P31941)", "4.32% (inactive)"],
  ["CNC(=O)O/N=C(\\N)Cc1csc2ccccc12", "DNA dC->dU-editing enzyme APOBEC-3A (Homo sapiens) (UniProt P31941)", "1.51% (inactive)"],
  ["O=C(O)CCn1cc(C=C2C(=O)NC(=S)NC2=O)c(-c2cccc(Br)c2)n1", "DNA dC->dU-editing enzyme APOBEC-3A (Homo sapiens) (UniProt P31941)", "40.8% (active)"],
  ["CN(C)c1nc(N(C)C)nc(N(C#N)CCCl)n1", "DNA dC->dU-editing enzyme APOBEC-3A (Homo sapiens) (UniProt P31941)", "-2.95% (inactive)"],
  ["COc1cc(OC)cc(C2(C#N)CCN(C)CC2)c1", "DNA dC->dU-editing enzyme APOBEC-3A (Homo sapiens) (UniProt P31941)", "3.94% (inactive)"]
]}
